SYSTEM_NAME: human DPP IV (Homo sapiens, UniProt P27487)
Construct: extracellular fragment of protease DPP IV (aa29-766)
Sequence (P27487 29-766): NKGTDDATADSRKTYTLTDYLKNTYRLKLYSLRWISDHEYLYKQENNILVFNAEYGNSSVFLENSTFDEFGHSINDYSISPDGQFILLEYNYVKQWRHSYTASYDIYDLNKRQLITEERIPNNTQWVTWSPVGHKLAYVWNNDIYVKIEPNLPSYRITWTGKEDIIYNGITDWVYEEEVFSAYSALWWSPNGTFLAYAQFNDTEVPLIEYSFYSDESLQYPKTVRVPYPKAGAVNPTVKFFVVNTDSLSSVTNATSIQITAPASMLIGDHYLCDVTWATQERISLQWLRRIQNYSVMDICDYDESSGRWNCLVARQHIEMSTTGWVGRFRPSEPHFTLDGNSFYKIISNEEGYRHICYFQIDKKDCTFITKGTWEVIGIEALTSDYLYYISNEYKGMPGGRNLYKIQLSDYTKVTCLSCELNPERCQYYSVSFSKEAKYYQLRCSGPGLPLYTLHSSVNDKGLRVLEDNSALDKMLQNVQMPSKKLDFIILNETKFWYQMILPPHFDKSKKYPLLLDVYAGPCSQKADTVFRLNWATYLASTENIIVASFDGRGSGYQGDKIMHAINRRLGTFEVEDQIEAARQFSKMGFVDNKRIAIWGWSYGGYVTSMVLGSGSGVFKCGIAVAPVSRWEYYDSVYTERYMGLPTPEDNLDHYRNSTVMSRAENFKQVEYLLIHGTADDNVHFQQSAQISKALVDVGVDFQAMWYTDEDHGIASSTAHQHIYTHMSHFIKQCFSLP
EXPERIMENT_DESCRIPTION: DPP IV activity screening (Ala-Pro-AMC fluorescence)
pIC50: −log10 of the molar value.
MEASURE: pIC50

The cases that follow already have their pIC50 on record.
MOLECULE	SYSTEM_NAME	OBSERVED
N#Cc1ccccc1Cn1c(N2CCC[C@@H](N)C2)nc2cc(C(=O)N3CCCC3)sc2c1=O	human DPP IV (Homo sapiens, UniProt P27487)	7.62
N#Cc1ccccc1Cn1c(N2CCC[C@@H](N)C2)nc2cc(C(=O)N3CCC[C@H]3CO)sc2c1=O	human DPP IV (Homo sapiens, UniProt P27487)	7.51
N#Cc1ccccc1Cn1c(N2CCC[C@@H](N)C2)nc2c(CN3CCOCC3)csc2c1=O	human DPP IV (Homo sapiens, UniProt P27487)	7.75
COCCCNC(=O)c1csc2c(=O)n(Cc3ccccc3C#N)c(N3CCC[C@@H](N)C3)nc12	human DPP IV (Homo sapiens, UniProt P27487)	8.09
COC(=O)[C@H](Cc1ccc(O)cc1)NC(=O)c1cc2nc(N3CCC[C@@H](N)C3)n(Cc3ccccc3C#N)c(=O)c2s1	human DPP IV (Homo sapiens, UniProt P27487)	7.51

a = COC(=O)c1cc2nc(N3CCC[C@@H](N)C3)n(Cc3ccccc3C#N)c(=O)c2s1
b = COC(=O)[C@H](Cc1ccc(O)cc1)NC(=O)c1csc2c(=O)n(Cc3ccccc3C#N)c(N3CCC[C@@H](N)C3)nc12
Could you tell me which of a and b has the lower pIC50 reading? Could you answer with the label of the item you picked?
b

* * *

SYSTEM_NAME: UniProt Q9UHL4
EXPERIMENT_DESCRIPTION: DPP 7 activity screening
Format: biochemical
TEST_SETTINGS: N.I. = No Inhibition
Protocol: Screening method: dipeptidyl peptidase IV (DPP IV) activity screening, dipeptidyl peptidase 7 (DPP 7), dipeptidyl peptidase 8 (DPP 8) activity screening, and dipeptidyl peptidase 9 (DPP 9) activity screening. Sample treatment: the sample was dissolved in DMSO and stored in low temperature. The concentration of DMSO in the final system was controlled so that the detected activity was not affected. […]
MEASURE: DPP 7 IC50

The cases that follow already have their DPP 7 IC50 on record.
N#Cc1ccccc1Cn1c(N2CCC[C@@H](N)C2)nc2c(C(N)=O)csc2c1=O N.I.
N#Cc1ccccc1Cn1c(N2CCC[C@@H](N)C2)nc2cc(C(N)=O)sc2c1=O N.I.
CC(C)CCNC(=O)c1cc2nc(N3CCC[C@@H](N)C3)n(Cc3ccccc3C#N)c(=O)c2s1 N.I.
COC(=O)[C@H](Cc1ccc(O)cc1)NC(=O)c1cc2nc(N3CCC[C@@H](N)C3)n(Cc3ccccc3C#N)c(=O)c2s1 N.I.
N#Cc1ccccc1Cn1c(N2CCC[C@@H](N)C2)nc2cc(C(=O)NC3CC3)sc2c1=O N.I.
COCCNC(=O)c1cc2nc(N3CCC[C@@H](N)C3)n(Cc3ccccc3C#N)c(=O)c2s1 N.I.
CC(C)NC(=O)c1cc2nc(N3CCC[C@@H](N)C3)n(Cc3ccccc3C#N)c(=O)c2s1 N.I.
N#Cc1ccccc1Cn1c(N2CCC[C@@H](N)C2)nc2cc(CN3CCOCC3)sc2c1=O N.I.

Consider the compound shown here: `CCCCNC(=O)c1cc2nc(N3CCC[C@@H](N)C3)n(Cc3ccccc3C#N)c(=O)c2s1` What is its recorded DPP 7 IC50?
N.I.

* * *

SYSTEM_NAME: human DPP IV (Homo sapiens)
Construct: extracellular fragment of protease DPP IV (aa29-766)
EXPERIMENT_DESCRIPTION: DPP IV activity screening (Ala-Pro-AMC fluorescence)
pIC50: −log10 of the molar value. Structures can show the parent of a compound that is named as a salt.
MEASURE: pIC50

The cases that follow already have their pIC50 on record.
MOLECULE	OBSERVED
N#Cc1ccccc1Cn1c(N2CCC[C@@H](N)C2)nc2c(C(=O)NCCCO)csc2c1=O [Compound 93]	7.83
COC(=O)CNC(=O)c1cc2nc(N3CCC[C@@H](N)C3)n(Cc3ccccc3C#N)c(=O)c2s1 [Compound 99]	7.61
N#Cc1ccccc1Cn1c(N2CCC[C@@H](N)C2)nc2cc(C(=O)NCc3ccccc3F)sc2c1=O [Compound 109]	7.81
CCOC(=O)CCCNC(=O)c1csc2c(=O)n(Cc3ccccc3C#N)c(N3CCC[C@@H](N)C3)nc12 [Compound 89]	7.85
N#Cc1ccccc1Cn1c(N2CCC[C@@H](N)C2)nc2cc(C(Br)Br)sc2c1=O [Compound 98]	8.00
CCNC(=O)c1cc2nc(N3CCC[C@@H](N)C3)n(Cc3ccccc3C#N)c(=O)c2s1 [Compound 113]	7.73
CCNC(=O)c1csc2c(=O)n(Cc3ccccc3C#N)c(N3CCC[C@@H](N)C3)nc12 [Compound 71]	7.85
CC(C)NC(=O)c1cc2nc(N3CCC[C@@H](N)C3)n(Cc3ccccc3C#N)c(=O)c2s1 [Compound 115]	7.84

I = COCCNC(=O)c1csc2c(=O)n(Cc3ccccc3C#N)c(N3CCC[C@@H](N)C3)nc12 [Compound 74]
II = CN1CCN(C(=O)c2csc3c(=O)n(Cc4ccccc4C#N)c(N4CCC[C@@H](N)C4)nc23)CC1 [Compound 70]
Could you tell me which of I and II has the lower pIC50 reading? Could you answer with the label of the item you picked?
II
(II: 7.73, I: 7.97)

A = CNC(=O)c1csc2c(=O)n(Cc3ccccc3C#N)c(N3CCC[C@@H](N)C3)nc12 [Compound 61]
B = N#Cc1ccccc1Cn1c(N2CCC[C@@H](N)C2)nc2c(C(=O)N3CCOCC3)csc2c1=O [Compound 69]
Which of the two gives a bigger number for pIC50: A or B ? Could you answer with the label of the item you picked?
A
(A: 7.86, B: 7.49)

a = CNC(=O)c1cc2nc(N3CCC[C@@H](N)C3)n(Cc3ccccc3C#N)c(=O)c2s1 [Compound 104]
b = N#Cc1ccccc1Cn1c(N2CCC[C@@H](N)C2)nc2c(C(=O)O)csc2c1=O [Compound 44, hydrochloride]
Which of the two gives a bigger number for pIC50: a or b ? Could you answer with the label of the item you picked?
b

P = N#Cc1ccccc1Cn1c(N2CCC[C@@H](N)C2)nc2c(C#N)csc2c1=O [Compound 83]
Q = COC(=O)[C@@H](NC(=O)c1csc2c(=O)n(Cc3ccccc3C#N)c(N3CCC[C@@H](N)C3)nc12)C(C)C [Compound 59]
Could you tell me which of P and Q has the lower pIC50 reading? Could you answer with the label of the item you picked?
Q
